# Tested on: Immortalised Mouse Dermal Fibroblasts (MDFs)
# Assay Summary: Cellular assay: inhibition of TSI induced necroptosis, CellTitre-Glo viability
# Conditions Used: Mus musculus, Fibroblast; MDF, 3 hours TSI cocktail, Table 27; read-out: Inhibition of TSI-induced necroptosis (IC50 cell-based assay) in MDF
pIC50: −log10 of the molar value.
Property Label: pIC50

Compound	Property Label	Experimental Result
C[C@H](Oc1cc(-c2nn(C)c3c(-c4cnn(C5CCN(C(=O)c6ccc(CNc7cccc8c7C(=O)N(C7CCC(=O)NC7=O)C8=O)cc6)CC5)c4)cnc(N)c23)ccc1NS(=O)(=O)C(F)F)c1ccc(F)cc1 (some centres unmarked)	pIC50	> 6.00

// switching to the query compound
### Prompt Give the measured pIC50 of C[C@H](Oc1cc(-c2nn(C)c3c(-c4cnn(C5CCN(C(=O)COC6CCN(c7cccc8c7C(=O)N(C7CCC(=O)NC7=O)C8=O)CC6)CC5)c4)cnc(N)c23)ccc1NS(=O)(=O)C(F)F)c1ccc(F)cc1 (some centres unmarked) .
### Response 5.00 to 6.00

====

# Test System: endogenous MLKL in U937 (Homo sapiens (Human))
# Sequence (Q8NB16 whole entry): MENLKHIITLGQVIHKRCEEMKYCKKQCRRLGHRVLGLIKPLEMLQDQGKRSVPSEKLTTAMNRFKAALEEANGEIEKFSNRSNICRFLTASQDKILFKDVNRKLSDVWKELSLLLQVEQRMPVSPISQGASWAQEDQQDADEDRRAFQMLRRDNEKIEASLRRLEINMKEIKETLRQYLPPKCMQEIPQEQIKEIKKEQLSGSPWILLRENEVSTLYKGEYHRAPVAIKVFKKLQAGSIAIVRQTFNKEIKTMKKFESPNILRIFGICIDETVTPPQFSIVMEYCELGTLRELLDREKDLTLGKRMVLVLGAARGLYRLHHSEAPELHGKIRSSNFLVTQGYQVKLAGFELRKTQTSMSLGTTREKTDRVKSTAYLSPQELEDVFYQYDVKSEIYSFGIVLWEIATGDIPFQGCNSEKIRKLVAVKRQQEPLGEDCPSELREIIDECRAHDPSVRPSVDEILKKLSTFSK
# Assay Summary: Degradation assay: endogenous MLKL in U937 (western blot)
# Conditions Used: U937, 24 h incubation, read-out: Degradation of endogenous MLKL in U937 (DC50 cell-based assay)
Property Label: DC50

Below: 2 compounds and their reported DC50.
Compound	Test System	Property Label	Experimental Result
C[C@H](Oc1cc(-c2nn(C)c3c(-c4cnn(C5CCN(C(=O)C6CCN(c7cccc8c7C(=O)N(C7CCC(=O)NC7=O)C8=O)C6)CC5)c4)cnc(N)c23)ccc1NS(=O)(=O)C(F)F)c1ccc(F)cc1 (stereo partly drawn)	endogenous MLKL in U937 (Homo sapiens (Human))	DC50	< 1000 nM
C[C@H](Oc1cc(-c2nn(C)c3c(C#CCCCCCCNC(=O)COc4cccc5c4C(=O)N(C4CCC(=O)NC4=O)C5=O)cnc(N)c23)ccc1NS(=O)(=O)C(F)F)c1ccc(F)cc1 (stereo partly drawn)	endogenous MLKL in U937 (Homo sapiens (Human))	DC50	< 1000 nM

### Prompt What DC50 appears in the records for this compound with endogenous MLKL in U937 (Homo sapiens (Human))? Cc1ncsc1-c1ccc(CNC(=O)[C@@H]2C[C@@H](O)CN2C(=O)[C@@H](NC(=O)CCCCCOc2ccc(-c3cnc(N)c4c(-c5ccc(NS(=O)(=O)C(F)F)c(O[C@@H](C)c6ccc(F)cc6)c5)nn(C)c34)cn2)C(C)(C)C)cc1
### Response < 1000 nM

### Prompt // same read-out, input: C[C@H](Oc1cc(-c2nn(C)c3c(-c4cnn(C5CCN(C(=O)[C@H]6C[C@H](Nc7cccc8c7C(=O)N(C7CCC(=O)NC7=O)C8=O)C6)CC5)c4)cnc(N)c23)ccc1NS(=O)(=O)C(F)F)c1ccc(F)cc1 (stereo partly drawn)
### Response < 1000 nM

### Prompt Would you kindly repeat that for CCS(=O)(=O)Nc1ccc(-c2nn(C)c3c(-c4cnn(C5CCN(C(=O)CCC6CCN(c7cccc8c7C(=O)N(C7CCC(=O)NC7=O)C8=O)CC6)CC5)c4)cnc(N)c23)cc1F (stereo not drawn) ?
### Response < 1000 nM

### Prompt Next compound: Cc1ncsc1-c1ccc(CNC(=O)[C@@H]2C[C@@H](O)CN2C(=O)[C@@H](NC(=O)C2(F)CC2)C(C)(C)C)c(OCCCCCn2cc(-c3cnc(N)c4c(-c5ccc(NS(=O)(=O)C(F)F)c(O[C@@H](C)c6ccc(F)cc6)c5)nn(C)c34)cn2)c1
### Response 1000 to 10000 nM

### Prompt Now give it for C[C@H](Oc1cc(-c2nn(C)c3c(-c4cnn(C5CCN(C(=O)COC6CCN(c7cccc8c7C(=O)N(C7CCC(=O)NC7=O)C8=O)CC6)CC5)c4)cnc(N)c23)ccc1NS(=O)(=O)C(F)F)c1ccc(F)cc1 (stereo partly drawn) too.
### Response < 1000 nM

### Prompt Here is the next compound: Cc1ncsc1-c1ccc(CNC(=O)[C@@H]2C[C@@H](O)CN2C(=O)[C@@H](NC(=O)CN2CCC(n3cc(-c4cnc(N)c5c(-c6ccc(NS(=O)(=O)C(F)F)c(O[C@@H](C)c7ccc(F)cc7)c6)nn(C)c45)cn3)C2)C(C)(C)C)cc1 (stereo partly drawn)
### Response 1000 to 10000 nM

### Prompt Then C[C@H](Oc1cc(-c2nn(C)c3c(-c4cnn(C5CCN(C(=O)N6CC(Nc7cccc8c7C(=O)N(C7CCC(=O)NC7=O)C8=O)C6)CC5)c4)cnc(N)c23)ccc1NS(=O)(=O)C(F)F)c1ccc(F)cc1 (stereo partly drawn) ?
### Response < 1000 nM
